Known log10 of GI50 of a selection of compounds
tested on: HCT-116; experiment: Growth inhibition of human HCT116 cells incubated for 48 hrs by sulforhodamine B assay; format: functional; conditions: HCT-116, 48 h
In our notation, the value equals log10 of GI50 in µM.

These solved cases illustrate the format of a correct answer.
{"COMPOUND": "C=C1C(=O)O[C@@H]2[C@H]3O[C@]3(C)CC/C=C(/COC(=O)CCCc3c[nH]c4ccccc34)CC[C@@H]12", "log10 of GI50": -0.02}
{"COMPOUND": "C=C1C(=O)O[C@@H]2[C@H]3O[C@]3(C)CC/C=C(/COC(=O)c3cc4ccccc4s3)CC[C@@H]12", "log10 of GI50": -0.23}
{"COMPOUND": "C=C1C(=O)O[C@@H]2[C@H]3O[C@]3(C)CC/C=C(/COC(=O)c3cc4cc(Cl)ccc4[nH]3)CC[C@@H]12", "log10 of GI50": -0.15}
{"COMPOUND": "C=C1C(=O)O[C@@H]2[C@H]3O[C@]3(C)CC/C=C(/COC(=O)c3cc4ccccc4[nH]3)CC[C@@H]12", "log10 of GI50": -0.72}

Problem: Determine its reported log10 of GI50: C=C1C(=O)O[C@@H]2[C@H]3O[C@]3(C)CC/C=C(/COC(=O)c3c[nH]c4ccccc34)CC[C@@H]12
Solution: -0.72

Problem: Tell us which log10 of GI50 value is on record for C=C1C(=O)O[C@@H]2[C@H]3O[C@]3(C)CC/C=C(/COC(=O)c3cc4cc(F)ccc4[nH]3)CC[C@@H]12
Solution: 0.18

Problem: Look up log10 of GI50 of C=C1C(=O)O[C@@H]2[C@H]3O[C@]3(C)CC/C=C(/COC(=O)/C=C/c3c[nH]c4ccccc34)CC[C@@H]12 and report it.
Solution: -0.74

Problem: Supply reported log10 of GI50 belonging to this compound: C=C1C(=O)O[C@@H]2[C@H]3O[C@]3(C)CC/C=C(/COC(=O)c3cc4ccccc4o3)CC[C@@H]12
Solution: -0.49

Problem: Give me measured log10 of GI50, please, for this compound: C=C1C(=O)O[C@@H]2C3O[C@]3(C)CC/C=C(\C)CC[C@@H]12 (stereo not given in full)
Solution: 1.03

Problem: Answer with the recorded log10 of GI50 of C=C1C(=O)O[C@@H]2[C@H]3O[C@]3(C)CC/C=C(/COC(=O)c3cc4cc(OC)ccc4[nH]3)CC[C@@H]12 only.
Solution: -0.38

Origin of measurements: ChEMBL document CHEMBL4138104
